# Ratio IC50 per record follows
Biological target: Serotonin and norepinephrine transporters (SERT/NET) (Homo sapiens) (UniProt P31645+P23975)
Sequence (P23975 whole entry, looked up, one chain of several): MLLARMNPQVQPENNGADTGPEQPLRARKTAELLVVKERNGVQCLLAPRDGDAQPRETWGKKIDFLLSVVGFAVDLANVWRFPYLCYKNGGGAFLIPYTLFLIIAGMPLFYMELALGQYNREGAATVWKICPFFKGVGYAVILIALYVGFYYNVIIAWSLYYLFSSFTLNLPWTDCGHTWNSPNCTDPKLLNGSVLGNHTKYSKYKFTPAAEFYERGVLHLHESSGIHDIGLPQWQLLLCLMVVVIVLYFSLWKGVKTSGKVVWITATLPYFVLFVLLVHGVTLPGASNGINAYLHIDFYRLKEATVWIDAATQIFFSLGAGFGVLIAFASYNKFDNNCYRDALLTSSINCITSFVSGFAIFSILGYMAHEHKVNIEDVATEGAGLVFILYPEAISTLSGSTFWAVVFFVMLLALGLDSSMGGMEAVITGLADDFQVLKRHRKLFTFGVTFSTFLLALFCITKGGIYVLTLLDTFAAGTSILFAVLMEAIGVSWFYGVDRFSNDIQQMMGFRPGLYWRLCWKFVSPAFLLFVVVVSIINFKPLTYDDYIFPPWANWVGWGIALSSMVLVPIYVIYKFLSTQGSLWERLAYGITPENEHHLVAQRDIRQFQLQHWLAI
Experiment: Selectivity for human SERT over human NET
Format: protein assay
property: Ratio IC50

[[record]]
molecule = "CN1C2C=C(c3cccc(-c4ccccc4)c3)CC1CC2 (centres undefined)"
meas_value = 0.029

[[record]]
molecule = "CN1C2C=C(c3ccccc3-c3ccccc3)CC1CC2 (centres undefined)"
meas_value = 0.27

[[record]]
molecule = "CN1C2C=C(c3ccc4c(c3)Cc3ccccc3-4)CC1CC2 (centres undefined)"
meas_value = 0.0043

[[record]]
molecule = "CN1C2CCC1CC(O)(C1c3ccccc3-c3ccccc31)C2 (centres undefined)"
meas_value = 0.22


----------
Target: Monoamine transporters; serotonin & dopamine (Homo sapiens) (UniProt P31645+Q01959)
Sequence (P31645 whole entry, looked up): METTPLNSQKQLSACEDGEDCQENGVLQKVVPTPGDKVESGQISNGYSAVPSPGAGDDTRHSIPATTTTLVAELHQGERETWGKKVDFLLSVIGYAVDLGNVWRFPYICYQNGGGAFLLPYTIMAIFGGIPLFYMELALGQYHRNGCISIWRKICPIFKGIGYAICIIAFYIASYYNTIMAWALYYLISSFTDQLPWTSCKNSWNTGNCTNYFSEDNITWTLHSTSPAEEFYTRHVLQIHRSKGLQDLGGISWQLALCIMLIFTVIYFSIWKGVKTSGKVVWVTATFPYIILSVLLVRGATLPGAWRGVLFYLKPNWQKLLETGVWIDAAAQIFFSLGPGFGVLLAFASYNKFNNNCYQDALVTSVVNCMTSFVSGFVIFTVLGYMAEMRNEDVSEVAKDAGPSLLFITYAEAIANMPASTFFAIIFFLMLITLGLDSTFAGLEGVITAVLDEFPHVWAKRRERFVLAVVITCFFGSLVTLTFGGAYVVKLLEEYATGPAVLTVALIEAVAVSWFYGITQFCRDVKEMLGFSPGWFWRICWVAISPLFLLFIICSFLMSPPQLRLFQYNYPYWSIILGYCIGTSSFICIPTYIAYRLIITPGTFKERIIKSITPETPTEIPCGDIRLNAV
Sequence (Q01959 whole entry, looked up): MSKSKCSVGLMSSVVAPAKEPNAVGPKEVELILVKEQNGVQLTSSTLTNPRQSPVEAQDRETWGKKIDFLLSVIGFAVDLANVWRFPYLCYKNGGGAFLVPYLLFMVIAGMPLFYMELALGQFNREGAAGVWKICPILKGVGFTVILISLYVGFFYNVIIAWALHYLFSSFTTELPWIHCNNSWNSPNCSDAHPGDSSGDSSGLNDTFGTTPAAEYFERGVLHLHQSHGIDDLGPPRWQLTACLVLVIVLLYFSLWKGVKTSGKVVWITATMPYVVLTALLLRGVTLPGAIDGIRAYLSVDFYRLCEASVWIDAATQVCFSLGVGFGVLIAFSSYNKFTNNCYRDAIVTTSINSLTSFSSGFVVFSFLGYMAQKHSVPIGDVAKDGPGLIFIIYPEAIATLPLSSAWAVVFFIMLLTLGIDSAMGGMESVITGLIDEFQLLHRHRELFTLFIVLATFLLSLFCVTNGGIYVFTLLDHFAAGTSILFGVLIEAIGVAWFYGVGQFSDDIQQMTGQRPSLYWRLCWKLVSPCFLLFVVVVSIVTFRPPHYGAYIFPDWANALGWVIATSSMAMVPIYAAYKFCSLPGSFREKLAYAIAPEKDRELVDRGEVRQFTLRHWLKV
Assay: Selectivity for human DAT over human SERT
Type: protein assay
# label = t if Ratio IC50 >= 6 else f

[[record]]
molecule = "CN1C2C=C(C3c4ccccc4-c4ccccc43)CC1CC2 (stereo not given)"
label_class = "t"

[[record]]
molecule = "CN1C2CCC1CC(O)(c1ccccc1-c1ccccc1)C2 (stereo not given)"
label_class = "f"

[[record]]
molecule = "CN1C2CCC1CC(O)(C1c3ccccc3-c3ccccc31)C2 (stereo not given)"
label_class = "f"

[[record]]
molecule = "CN1C2C=C(c3ccccc3-c3ccccc3)CC1CC2 (stereo not given)"
label_class = "f"

[[record]]
molecule = "CN1C2C=C(c3ccc4c(c3)Cc3ccccc3-4)CC1CC2 (stereo not given)"
label_class = "t"

[[record]]
molecule = "CN1C2CCC1CC(O)(c1cccc(-c3ccccc3)c1)C2 (stereo not given)"
label_class = "f"

[[record]]
molecule = "C[N+]1(CCl)C2C=C(c3ccccc3-c3ccccc3)CC1CC2 (stereo not given)"
label_class = "f"

[[record]]
molecule = "CN1C2CCC1CC(O)(C1c3ccccc3-c3ccc(Br)cc31)C2 (stereo not given)"
label_class = "t"

[[record]]
molecule = "CN1C2C=C(c3cccc(-c4ccccc4)c3)CC1CC2 (stereo not given)"
label_class = "t"

[[record]]
molecule = "CN1C2C=C(c3c[nH]c4ccccc34)CC1CC2 (stereo not given)"
label_class = "t"


----------
Molecular target: Monoamine transporters; Norepinephrine & dopamine (Homo sapiens) (UniProt Q01959+P23975)
Sequence (P23975 whole entry, looked up, one chain of several): as the sequence (P23975 whole entry, looked up, one chain of several) above
Experiment: Selectivity for human DAT over human NET
Type: protein assay
property: Ratio IC50

[[record]]
molecule = "CN1C2C=C(c3cccc(-c4ccccc4)c3)CC1CC2 (stereo not given)"
study_system = "Monoamine transporters; Norepinephrine & dopamine (Homo sapiens) (UniProt Q01959+P23975)"
meas_value = 0.314

[[record]]
molecule = "CN1C2C=C(c3ccc4c(c3)Cc3ccccc3-4)CC1CC2 (stereo not given)"
study_system = "Monoamine transporters; Norepinephrine & dopamine (Homo sapiens) (UniProt Q01959+P23975)"
meas_value = 0.23

[[record]]
molecule = "CN1C2C=C(c3ccccc3-c3ccccc3)CC1CC2 (stereo not given)"
study_system = "Monoamine transporters; Norepinephrine & dopamine (Homo sapiens) (UniProt Q01959+P23975)"
meas_value = 1.44

[[record]]
molecule = "CN1C2CCC1CC(O)(C1c3ccccc3-c3ccc(Br)cc31)C2 (stereo not given)"
study_system = "Monoamine transporters; Norepinephrine & dopamine (Homo sapiens) (UniProt Q01959+P23975)"
meas_value = 0.27

[[record]]
molecule = "CN1C2CCC1CC(O)(C1c3ccccc3-c3ccccc31)C2 (stereo not given)"
study_system = "Monoamine transporters; Norepinephrine & dopamine (Homo sapiens) (UniProt Q01959+P23975)"
meas_value = 0.0034

[[record]]
molecule = "CN1C2CCC1CC(O)(c1ccccc1-c1ccccc1)C2 (stereo not given)"
study_system = "Monoamine transporters; Norepinephrine & dopamine (Homo sapiens) (UniProt Q01959+P23975)"
meas_value = 0.06

[[record]]
molecule = "CN1C2CCC1CC(O)(c1cccc(-c3ccccc3)c1)C2 (stereo not given)"
study_system = "Monoamine transporters; Norepinephrine & dopamine (Homo sapiens) (UniProt Q01959+P23975)"
meas_value = 0.53

[[record]]
molecule = "CN1C2C=C(c3c[nH]c4ccccc34)CC1CC2 (stereo not given)"
study_system = "Monoamine transporters; Norepinephrine & dopamine (Homo sapiens) (UniProt Q01959+P23975)"
meas_value = 0.15

[[record]]
molecule = "CN1C2C=C(C3c4ccccc4-c4ccccc43)CC1CC2 (stereo not given)"
study_system = "Monoamine transporters; Norepinephrine & dopamine (Homo sapiens) (UniProt Q01959+P23975)"
meas_value = 0.113

[[record]]
molecule = "C[N+]1(CCl)C2C=C(c3ccccc3-c3ccccc3)CC1CC2 (stereo not given)"
study_system = "Monoamine transporters; Norepinephrine & dopamine (Homo sapiens) (UniProt Q01959+P23975)"
meas_value = 33.2


----------
Biological target: Sodium-dependent serotonin transporter (Homo sapiens)
Sequence (P31645 whole entry): as the sequence (P31645 whole entry, looked up) above
For each record, check the reported IC50: if it is below 2000 nM write t, else write f.

[[record]]
compound = "CN1C2C=C(c3ccccc3-c3ccccc3)CC1CC2 (stereo not given)"
label_class = "t"

[[record]]
compound = "CN1C2CCC1CC(O)(C1c3ccccc3-c3ccc(Br)cc31)C2 (stereo not given)"
label_class = "f"

[[record]]
compound = "CN1C2CCC1CC(O)(c1cccc(-c3ccccc3)c1)C2 (stereo not given)"
label_class = "f"

[[record]]
compound = "CN1C2CCC1CC(O)(C1c3ccccc3-c3ccccc31)C2 (stereo not given)"
label_class = "f"

[[record]]
compound = "C[N+]1(CCl)C2C=C(c3ccccc3-c3ccccc3)CC1CC2 (stereo not given)"
label_class = "f"

[[record]]
compound = "CN1C2C=C(C3c4ccccc4-c4ccccc43)CC1CC2 (stereo not given)"
label_class = "t"

[[record]]
compound = "CN1C2C=C(c3c[nH]c4ccccc34)CC1CC2 (stereo not given)"
label_class = "t"

[[record]]
compound = "CN1C2CCC1CC(O)(c1ccccc1-c1ccccc1)C2 (stereo not given)"
label_class = "f"

[[record]]
compound = "CN1C2C=C(c3cccc(-c4ccccc4)c3)CC1CC2 (stereo not given)"
label_class = "t"

[[record]]
compound = "CN1C2C=C(c3ccc4c(c3)Cc3ccccc3-4)CC1CC2 (stereo not given)"
label_class = "t"

